The reported numbers originate from the supplement of paper PMC11061612.

- System: RERF-LC-Sq1 (Squamous Cell Lung Carcinoma);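 further: after 72 h of two-drug dosing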
- protocol: Bliss excess, mean over the matrix (fraction); higher = more synergy
Each entry below carries its reported Bliss excess.
Give a plain numeric answer without units written out.

Solved entries:
molecule	Bliss excess
CC1(C)CCC(CN2CCN(c3ccc(C(=O)NS(=O)(=O)c4ccc(NCC5CCOCC5)c([N+](=O)[O-])c4)c(Oc4cnc5[nH]ccc5c4)c3)CC2)=C(c2ccc(Cl)cc2)C1 [Venetoclax] + C1CN(CCC1(C(=O)N[C@@H](CCO)C2=CC=C(C=C2)Cl)N)C3=NC=NC4=C3C=CN4 [Capivasertib] (first compound max 1 µM, 7x7, partner max 3 µM)	-0.0391
CC1(C)CCC(CN2CCN(c3ccc(C(=O)NS(=O)(=O)c4ccc(NCC5CCOCC5)c([N+](=O)[O-])c4)c(Oc4cnc5[nH]ccc5c4)c3)CC2)=C(c2ccc(Cl)cc2)C1 [Venetoclax] + Cc1cc2ncnn2cc1Nc1ncc2c(n1)n(C1CCOCC1)c(=O)n2C [AZD7648] (first compound max 1 µM, 7x7, partner max 10 µM)	-0.0268

// switching to the query molecule
Query: Need Bliss excess of COc1cccc(OCCCN)c1-c1cc(Nc2cnc(C#N)cn2)n[nH]1 [Prexasertib] + C[C@@H]1COCCN1C2=NC(=NC(=C2)C3(CC3)[S@](=N)(=O)C)C4=C5C=CNC5=NC=C4 [AZD6738] (first compound max 1 µM, 7x7, partner max 10 µM) , thanks.
Reply: -0.0492

====

- System: PC-3_[JPC-3] (Lung Adenocarcinoma)
- protocol: combination Emax (second highest fraction inhibited in the dose matrix, 72 h); higher = more inhibition; extreme values may be limits of the assay
Each entry below carries its reported combination Emax.
Give a plain numeric answer without units written out.

molecule	targetEntity	measure	measuredNumber
CC(=O)Nc1cccc(-n2c(=O)n(C3CC3)c(=O)c3c(Nc4ccc(I)cc4F)n(C)c(=O)c(C)c32)c1 [Trametinib] + Cc1nc(-c2cn3c(n2)-c2ccc(-c4cnn(C(C)(C)C(N)=O)c4)cc2OCC3)n(C(C)C)n1 [Taselisib] (first compound max 1 µM, 7x7, partner max 10 µM)	PC-3_[JPC-3] (Lung Adenocarcinoma)	combination Emax	0.882

Query: Need combination Emax of CN(CCO)CC[C@H](CSc1ccccc1)Nc1ccc(S(=O)(=O)NC(=O)c2ccc(N3CCC([C@@H](O)c4ccccc4-c4ccc(Cl)cc4)CC3)cc2)cc1S(=O)(=O)C(F)(F)F [AZD4320] + CC(=O)O[C@H]1C(=O)[C@@]2(C)[C@H]([C@H](OC(=O)c3ccccc3)[C@]3(O)C[C@H](OC(=O)[C@H](O)[C@@H](NC(=O)c4ccccc4)c4ccccc4)C(C)=C1C3(C)C)[C@]1(OC(C)=O)CO[C@@H]1C[C@@H]2O [Paclitaxel] (first compound max 1 µM, 7x7, partner max 3 µM) , thanks.
Reply: 0.76

====

- System: RERF-LC-Sq1 (Squamous Cell Lung Carcinoma);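 further: after 72 h of two-drug dosing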
- protocol: Bliss excess, mean over the matrix (fraction); higher = more synergy
measure: Bliss excess
Give a plain numeric answer without units written out.

Solved entries:
molecule	measure	measuredNumber
CC1(C)CCC(CN2CCN(c3ccc(C(=O)NS(=O)(=O)c4ccc(NCC5CCOCC5)c([N+](=O)[O-])c4)c(Oc4cnc5[nH]ccc5c4)c3)CC2)=C(c2ccc(Cl)cc2)C1 [Venetoclax] + C=CCn1c(=O)c2cnc(Nc3ccc(N4CCN(C)CC4)cc3)nc2n1-c1cccc(C(C)(C)O)n1 [AZD1775] (first compound max 1 µM, partner max 1 µM)	Bliss excess	-0.0437
Cc1cc2ncnn2cc1Nc1ncc2c(n1)n(C1CCOCC1)c(=O)n2C [AZD7648] + CN(C)CCCOc1ccc(-c2ccc3ncc4c(c3c2)n(C2CCOCC2)c(=O)n4C)cn1 [AZD0156] (first compound max 10 µM, 7x7, partner max 1 µM)	Bliss excess	0.0114
CN(CCO)CC[C@H](CSc1ccccc1)Nc1ccc(S(=O)(=O)NC(=O)c2ccc(N3CCC([C@@H](O)c4ccccc4-c4ccc(Cl)cc4)CC3)cc2)cc1S(=O)(=O)C(F)(F)F [AZD4320] + C[C@@H](Nc1cc(F)cc(F)c1)c1cc(C(=O)N(C)C)cc2c(=O)cc(N3CCOCC3)oc12 [AZD8186] (first compound max 1 µM, 7x7, partner max 3 µM)	Bliss excess	-0.0169
COc1cc2ncnc(Nc3ccc(F)c(Cl)c3)c2cc1OCCCN1CCOCC1 [Gefitinib] + CC(C)n1c(=O)n(C)c2cnc3cc(F)c(-c4ccc(OCCCN5CCCCC5)nc4)cc3c21 [AZD1390] (first compound max 10 µM, 7x7, partner max 0.3 µM)	Bliss excess	-0.0938
NC1(C(=O)N[C@@H](CCO)c2ccc(Cl)cc2)CCN(c2ncnc3[nH]ccc23)CC1 [Capivasertib] + CCN(CCO)CCCOc1ccc2c(Nc3cc(CC(=O)Nc4cccc(F)c4)[nH]n3)ncnc2c1 [AZD2811] (first compound max 10 µM, 7x7, partner max 1 µM)	Bliss excess	0.0072

// switching to the query molecule
Query: Need Bliss excess of CN(CCO)CC[C@H](CSc1ccccc1)Nc1ccc(S(=O)(=O)NC(=O)c2ccc(N3CCC([C@@H](O)c4ccccc4-c4ccc(Cl)cc4)CC3)cc2)cc1S(=O)(=O)C(F)(F)F [AZD4320] + C[C@@H]1COCCN1C2=NC(=NC(=C2)C3(CC3)[S@](=N)(=O)C)C4=C5C=CNC5=NC=C4 [AZD6738] (first compound max 1 µM, 7x7, partner max 10 µM) , thanks.
Reply: -0.0082
